- target of assay: AgCyk3
- test summary: SPOT peptide array binding signal intensity (averaged, normalized) (arbitrary units (background-subtracted, floor 0; scale differs between SH3 domains)); higher = stronger binding of the SH3 domain to the peptide
assay metric: SPOT peptide array binding signal intensity
Enter the number alone.

>  <binder>
ISNFVPPNLPMRRFK

>  <value>
1

$$$$
>  <binder>
RVRKTHVPASKRPSG

>  <value>
1

$$$$
>  <binder>
ERPKRRAPPPVPKKP

>  <value>
2

$$$$
>  <binder>
YRRKSIPFAPHQITA

>  <value>
1

$$$$

Report SPOT peptide array binding signal intensity, nothing else, for this binder: IRMPSNPALPKKLLN
1

State its SPOT peptide array binding signal intensity for this binder: EVTPKVPERPSRRKT
1

Please list SPOT peptide array binding signal intensity recorded for the binder LTRRFPFLFPFDTRM
1

Please report SPOT peptide array binding signal intensity for the following binder: AGKRRLPLVRFKASD
5
